ASSAY TARGET: Recombinant human Plk-1 (6×His) (Homo sapiens)
Construct: 6×His
MEASUREMENT DESCRIPTION: PLK enzyme assay (33P-γ-ATP incorporation into biotinylated casein, SPA beads)
TEST CONDITIONS: 10 ng PLK enzyme, 90 minutes at room temperature, 0.5 μmol of ATP, casein substrate; read-out: Inhibition of PLK-1 IC50
pIC50: −log10 of the molar value.
MEASUREMENT LABEL: pIC50

Look over these answered cases.
// returns reported pIC50 for input `CCOC(=O)C(C#N)=c1sc(=CNc2ccc(C)cc2C(=O)O)c(=O)n1CC`
5.52

// returns reported pIC50 for input `CCOC(=O)C(C#N)=c1sc(=CNC(=O)Nc2ccccc2)c(=O)n1CC`
6.17

// returns reported pIC50 for input CCn1c(=C(C#N)C(=O)O)sc(=CNc2ccccc2)c1=O (mixture of isomers)
7.00

// returns reported pIC50 for input `CCOC(=O)C(C#N)=c1sc(=CNc2ccccc2C(=O)O)c(=O)n1CC`
5.20

// returns reported pIC50 for input `CCOC(=O)C(C#N)=c1sc(=CNc2cccc(S(N)(=O)=O)c2)c(=O)n1CC`
6.34

// returns reported pIC50 for input `CCOC(=O)C(C#N)=c1sc(=CNc2cc(Cl)ccc2C(=O)O)c(=O)n1CC`
5.77

// returns reported pIC50 for input `CCOC(=O)C(C#N)=c1sc(=CNc2ccc(Cl)cc2C(=O)O)c(=O)n1CC`
5.72

// returns reported pIC50 for input `CCOC(=O)C(C#N)=c1sc(=CNc2ccc(Br)cc2C(=O)O)c(=O)n1CC`
5.74

// returns reported pIC50 for input `CCOC(=O)C(C#N)=c1sc(=CNc2cccc(NC(C)=O)c2)c(=O)n1CC`
6.74

// returns reported pIC50 for input `CCOC(=O)C(C#N)=c1sc(=CNc2ccc(S(N)(=O)=O)cc2)c(=O)n1CC`
6.62

I. CCOC(=O)C(C#N)=c1sc(=CNc2ccc(F)cc2C(=O)O)c(=O)n1CC
II. CCOC(=O)C(C#N)=c1sc(=CNc2ccc(Cl)c(C(=O)O)c2)c(=O)n1CC
Lower value of pIC50 belongs to which: I or II ? Please reply using the label of the selected record.
I
(I: 5.55, II: 6.38)

a. CCOC(=O)C(C#N)=c1sc(=CNc2cccc(CO)c2)c(=O)n1CC
b. CCOC(=O)C(C#N)=c1sc(=CNc2ccc(C(=O)O)cc2C)c(=O)n1CC
Of a and b , which one carries the higher reported pIC50? Please reply using the label of the selected record.
a
(a: 6.54, b: 5.77)

* * *

ASSAY TARGET: Recombinant human Plk-1 (6×His) (Homo sapiens, UniProt P53350)
Construct: 6×His
Sequence (P53350 whole entry): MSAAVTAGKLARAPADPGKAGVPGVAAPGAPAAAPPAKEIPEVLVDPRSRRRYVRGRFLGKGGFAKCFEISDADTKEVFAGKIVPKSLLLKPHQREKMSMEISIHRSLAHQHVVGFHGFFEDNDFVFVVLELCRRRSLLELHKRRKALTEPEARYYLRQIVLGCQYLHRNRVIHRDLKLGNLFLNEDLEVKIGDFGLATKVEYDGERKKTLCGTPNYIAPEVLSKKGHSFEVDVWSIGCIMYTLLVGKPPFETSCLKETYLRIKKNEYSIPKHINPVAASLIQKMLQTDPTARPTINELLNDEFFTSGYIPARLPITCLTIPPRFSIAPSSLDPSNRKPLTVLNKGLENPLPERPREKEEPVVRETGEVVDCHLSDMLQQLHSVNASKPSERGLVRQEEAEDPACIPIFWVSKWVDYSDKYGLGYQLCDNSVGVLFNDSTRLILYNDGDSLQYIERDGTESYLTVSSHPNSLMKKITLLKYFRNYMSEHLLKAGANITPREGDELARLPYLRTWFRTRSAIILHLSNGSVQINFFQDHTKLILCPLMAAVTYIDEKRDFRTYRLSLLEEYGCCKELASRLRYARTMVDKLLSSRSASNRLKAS
MEASUREMENT DESCRIPTION: PLK enzyme assay (33P-γ-ATP incorporation into biotinylated casein, SPA beads)
TEST CONDITIONS: 10 ng PLK enzyme, 90 minutes at room temperature, 0.5 μmol of ATP, casein substrate; read-out: Inhibition of PLK-1 IC50
pIC50: −log10 of the molar value.
MEASUREMENT LABEL: pIC50

For Recombinant human Plk-1 (6×His) (Homo sapiens, UniProt P53350), provide pIC50 of CCn1c(=CC#N)sc(=CNc2ccccc2)c1=O (mixture of isomers) [Example 21] please.
6.64

For Recombinant human Plk-1 (6×His) (Homo sapiens, UniProt P53350), provide pIC50 of CCOC(=O)C(C#N)=c1sc(=CNc2ccc(C(=O)O)cc2O)c(=O)n1CC [Example 30] please.
6.60

For Recombinant human Plk-1 (6×His) (Homo sapiens, UniProt P53350), provide pIC50 of CCOC(=O)C(C#N)=c1sc(=CNc2ccc(NC(C)=O)cc2)c(=O)n1CC [Example 58] please.
6.57

For Recombinant human Plk-1 (6×His) (Homo sapiens, UniProt P53350), provide pIC50 of CCOC(=O)C(C#N)=c1sc(=CNc2ccc(C(N)=O)cc2)c(=O)n1CC (mixture of isomers) [Example 10] please.
6.70
